- Study Target: TNFα / TNFα receptor (TNFα R1/Fc) (Homo sapiens)
- Construct: purchased R&D Systems
- Sequence (P01375 77-233 limits assumed, species assumed): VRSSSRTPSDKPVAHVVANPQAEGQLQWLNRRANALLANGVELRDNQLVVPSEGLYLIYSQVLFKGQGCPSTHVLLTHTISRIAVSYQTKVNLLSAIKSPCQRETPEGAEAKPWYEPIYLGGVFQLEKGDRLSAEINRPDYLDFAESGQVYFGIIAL
- Protocol Notes: Inhibition of binding of TNFα to the TNFα receptor (plate ELISA competition)
- Protocol Conditions: Table 2; read-out: Activity (IC50, inhibition of TNFα binding to TNFα R1/Fc)
Numbered stars: 1 amine (or outer) side, 2 acyl side, 3 side chain; on linkers, the order of the positions; unused ones are H or OH. Bridge positions count the residues as written; N and C are the ends. Square brackets hold non-standard residues; d marks the D form. Peptide text beside a SMILES is read from it. * marks the point of attachment. Phe(4-CF3) = N[C@@H](Cc1ccc(C(F)(F)F)cc1)C(=O)O; Phe(4-COOH) = N[C@@H](Cc1ccc(C(=O)O)cc1)C(=O)O; Phe(2,4-Cl2) = N[C@@H](Cc1ccc(Cl)cc1Cl)C(=O)O; Bip = N[C@@H](Cc1ccc(-c2ccccc2)cc1)C(=O)O; dBip = N[C@H](Cc1ccc(-c2ccccc2)cc1)C(=O)O; dPhe(4-NH2) = Nc1ccc(C[C@@H](N)C(=O)O)cc1; Phe(4-Br) = N[C@@H](Cc1ccc(Br)cc1)C(=O)O; Phe(4-NH2) = Nc1ccc(C[C@H](N)C(=O)O)cc1; d(hPhe) = N[C@H](CCc1ccccc1)C(=O)O; 3Pal = N[C@@H](Cc1cccnc1)C(=O)O; d2Thi = N[C@H](Cc1cccs1)C(=O)O; Suc = O=C(CCC(=O)[*:2])[*:1]; X1 = O=C(O)C1CCN(*)C1; βAla = NCCC(=O)O
Give measured IC50 for each item. Keep answers brief.

[ask] Look up IC50 for this compound: O=C1COc2ccc(cc2)C[C@@H](C(=O)O)NC(=O)[C@@H](CCc2ccccc2)NC(=O)C(c2ccc(Br)cc2)NC(=O)[C@@H](Cc2cccs2)N1 (stereo partly drawn)
[reply] < 10 µM

[ask] Further, for O=C1CCC(=O)N[C@H](CCc2ccccc2)C(=O)N[C@@H](Cc2ccc(-c3ccccc3)cc2)C(=O)N[C@H](Cc2ccccc2)C(=O)N[C@H](C(=O)N2CCC(C(=O)O)C2)Cc2ccc(cc2)N1 (stereo partly drawn) [Compound 353] ([d(hPhe)][Bip][dF][Phe(4-NH2)]-X1; linker N-4 via Suc) ?
[reply] > 100 µM

[ask] Further, for O=C1CCC(=O)N[C@H](CCc2ccccc2)C(=O)N[C@@H](Cc2ccc(-c3cccc(Cl)c3)cc2)C(=O)N[C@H](Cc2ccccc2)C(=O)N[C@H](C(=O)O)Cc2ccc(cc2)N1 ?
[reply] > 100 µM

[ask] Further, for O=C(O)C[C@H](NC(=O)[C@@H]1Cc2ccc(cc2)OCC(=O)N[C@@H](Cc2cccs2)C(=O)N[C@@H](Cc2ccc(-c3ccccc3)cc2)C(=O)N[C@@H](Cc2ccccc2)C(=O)N1)C(=O)O ?
[reply] 30 to 100 µM

[ask] Further, for O=C1CCC(=O)N[C@H](CCc2ccccc2)C(=O)N[C@@H](Cc2ccc(-c3ccccc3)cc2)C(=O)N[C@H](Cc2ccccc2)C(=O)N[C@H](C(=O)N[C@@H](Cc2cccnc2)C(=O)O)Cc2ccc(cc2)N1 [Compound 403] ([d(hPhe)][Bip][dF][Phe(4-NH2)][3Pal]-OH; linker N-4 via Suc) ?
[reply] > 100 µM

[ask] Further, for C[C@@H](NC(=O)[C@@H]1Cc2ccc(cc2)NC(=O)CCC(=O)N[C@H](Cc2cccs2)C(=O)N[C@@H](Cc2ccc(-c3ccccc3)cc2)C(=O)N[C@H](CCc2ccccc2)C(=O)N1)C(=O)O [Compound 446] ([d2Thi][Bip][d(hPhe)][Phe(4-NH2)][dA]-OH; linker N-4 via Suc) ?
[reply] > 100 µM

[ask] Further, for O=C1CCC(=O)N[C@H](CCc2ccccc2)C(=O)N[C@@H](Cc2ccc(C(F)(F)F)cc2)C(=O)N[C@H](Cc2ccccc2)C(=O)N[C@H](C(=O)O)Cc2ccc(cc2)N1 [Compound 2] ([d(hPhe)][Phe(4-CF3)][dF][Phe(4-NH2)]-OH; linker N-4 via Suc) ?
[reply] > 100 µM

[ask] Further, for O=C(O)CCNC(=O)[C@@H]1Cc2ccc(cc2)OCC(=O)N[C@H](Cc2cccs2)C(=O)N[C@@H](Cc2ccc(-c3ccccc3)cc2)C(=O)N[C@H](CCc2ccccc2)C(=O)N1 ?
[reply] < 10 µM

[ask] Further, for O=C1CCC(=O)N[C@H](Cc2cccs2)C(=O)N[C@H](Cc2ccc(-c3ccccc3)cc2)C(=O)N[C@H](Cc2ccccc2)C(=O)N[C@H](C(=O)O)Cc2ccc(cc2)N1 [Compound 194] ([d2Thi][dBip][dF][Phe(4-NH2)]-OH; linker N-4 via Suc) ?
[reply] > 100 µM

[ask] Further, for N=C(N)NCCC[C@H]1NC(=O)[C@H](Cc2ccc(-c3ccccc3)cc2)NC(=O)[C@@H](Cc2cccs2)NC(=O)CCC(=O)Nc2ccc(cc2)C[C@@H](C(=O)O)NC1=O [Compound 73] ([d2Thi][Bip][dR][Phe(4-NH2)]-OH; linker N-4 via Suc) ?
[reply] > 100 µM

[ask] Further, for O=C1Nc2ccc(cc2)C[C@H](C(=O)N[C@@H](Cc2ccccc2)C(=O)O)NC(=O)[C@@H](Cc2ccccc2)NC(=O)[C@H](Cc2ccc(-c3ccccc3)cc2)NC(=O)[C@@H](Cc2cccs2)NC(=O)C2CC12 (stereo partly drawn) ?
[reply] < 10 µM

[ask] Further, for COc1ccc(C[C@H]2NC(=O)CCC(=O)Nc3ccc(cc3)C[C@@H](C(=O)O)NC(=O)[C@@H](Cc3ccccc3)NC(=O)[C@H](Cc3ccc(C(F)(F)F)cc3)NC2=O)cc1 [Compound 162] ([dY](Me)[Phe(4-CF3)][dF][Phe(4-NH2)]-OH; linker N-4 via Suc) ?
[reply] > 100 µM

[ask] Further, for O=C1CCC(=O)N[C@H](CCc2ccccc2)C(=O)N[C@@H](Cc2ccc(Cl)cc2Cl)C(=O)N[C@H](Cc2ccccc2)C(=O)N[C@@H](C(=O)O)Cc2ccc(cc2)N1 [Compound 112] ([d(hPhe)][Phe(2,4-Cl2)][dF][dPhe(4-NH2)]-OH; linker N-4 via Suc) ?
[reply] < 10 µM

[ask] Further, for O=C(O)CCNC(=O)[C@@H]1Cc2ccc(cc2)C(=O)NCCC(=O)N[C@H](CCc2ccccc2)C(=O)N[C@@H](Cc2ccc(-c3ccccc3)cc2)C(=O)N[C@H](Cc2ccccc2)C(=O)N1 [Compound 420] ([βAla][d(hPhe)][Bip][dF][Phe(4-COOH)][βAla]-OH; lactam N-5) ?
[reply] > 100 µM

[ask] Further, for O=C1CCC(=O)N[C@H](Cc2cccs2)C(=O)N[C@@H](Cc2ccc(Br)cc2)C(=O)N[C@H](Cc2ccccc2)C(=O)N[C@H](C(=O)N[C@@H](Cc2ccccc2)C(=O)O)Cc2ccc(cc2)N1 [Compound 201] ([d2Thi][Phe(4-Br)][dF][Phe(4-NH2)]F-OH; linker N-4 via Suc) ?
[reply] < 10 µM
